Target: h-GABA-A α2β2γ1 (Homo sapiens (Human), UniProt P47869+Q8N1C3)
Assay: Two-electrode voltage clamp electrophysiology in Xenopus oocytes expressing GABAA receptors, modulation of GABA EC20 current
Type: cell-based
Settings: Xenopus oocytes, GABA EC20, test compound at approx. 30-fold its Ki α2β2γ1
Please respond with reported Fold increase h-GABA-A α2β2γ1 oocyte @ 30-fold Ki for every item in the list.
// no unit, no text: just the number

# Fold increase h-GABA-A α2β2γ1 oocyte @ 30-fold Ki (compound: O=c1ccn2c(n1)CN=C(c1ccccc1F)c1c-2ccc(Cl)c1Cl [Example 1] ) is 1.92

# Fold increase h-GABA-A α2β2γ1 oocyte @ 30-fold Ki (compound: CCO/C=C/c1cn2c(nc1=O)[C@H](C)N=C(c1c(F)cccc1F)c1c-2ccc(Cl)c1Cl [Example 19] ) is 2.04

# Fold increase h-GABA-A α2β2γ1 oocyte @ 30-fold Ki (compound: CCOCCc1cn2c(nc1=O)[C@H](C)N=C(c1c(F)cccc1F)c1c-2ccc(Cl)c1Cl [Example 21] ) is 2.13

# Fold increase h-GABA-A α2β2γ1 oocyte @ 30-fold Ki (compound: Cc1cn2c(nc1=O)[C@H](C)N=C(c1c(F)cccc1F)c1c-2ccc(Cl)c1Cl [Example 7] ) is 1.53

----------
Please respond with reported Ki for every item in the list.
Target: human GABAA α1β3γ2 receptor (Homo sapiens (Human), UniProt P14867+P18507)
Assay: Radioligand binding assay, competition for [3H]Flumazenil, γ2-containing GABAA subtype α1β3γ2
A number alone suffices; assume nM.

# Ki (molecule: CCc1cn2c(nc1=O)[C@H](C)N=C(c1c(F)cccc1F)c1c-2ccc(Cl)c1Cl [Example 14] ) is 909

# Ki (molecule: O=c1nc2n(cc1Br)-c1ccc(Cl)c(Cl)c1C(c1c(F)cccc1F)=NC2 [Example 5] ) is 2020

# Ki (molecule: Cc1cn2c(nc1=O)[C@H](C)N=C(c1c(F)cccc1F)c1c-2ccc(Cl)c1Cl [Example 7] ) is 695

----------
Molecular target: human GABAA α1β2γ1 receptor (Homo sapiens (Human), UniProt P14867+Q8N1C3)
Assay: Radioligand binding assay, competition for [3H]RO7239181, γ1-containing GABAA subtype α1β2γ1
Conditions: membranes of HEK293F cells, [3H]RO7239181 20-30 nM, mean of two determinations
pKi: −log10 of the molar value.
Criterion: pKi meeting or surpassing 7. Met: criterion met. Not met: criterion not met.

**Query** Identify whether the reported pKi of the following molecule is 7 or greater: C[C@@H]1N=C(c2c(F)cccc2F)c2c(ccc(Br)c2Cl)-n2ccc(=O)nc21
**Result** criterion met

**Query** Identify whether the reported pKi of the following molecule is 7 or greater: CCc1cn2c(nc1=O)[C@H](C)N=C(c1c(F)cccc1F)c1c-2ccc(C(F)(F)F)c1Cl
**Result** criterion not met

**Query** Identify whether the reported pKi of the following molecule is 7 or greater: O=c1ccn2c(n1)CN=C(c1c(F)cccc1F)c1c-2ccc(Cl)c1Cl
**Result** criterion met

**Query** Identify whether the reported pKi of the following molecule is 7 or greater: C[C@@H]1N=C(c2c(F)cccc2F)c2c(ccc(Cl)c2Cl)-n2ccc(=O)nc21
**Result** criterion met

**Query** Identify whether the reported pKi of the following molecule is 7 or greater: O=c1ccn2c(n1)CN=C(c1ncccc1F)c1c-2ccc(Cl)c1Cl
**Result** criterion not met
